tested on: 786-0 renal; assay: NCI-60 one-dose screen, 48 h; details: 10 µM
About 83,000 compounds went through this panel and 20% of them were active in at least one assay; those are over-represented in the sample as a whole. Calls of active or inactive are those of the source. The calls were made as follows: active = growth percent below 10; inactive = the rest.
Outcome codes: true = active, false = inactive

1) O=C(O)CN1C(=O)C=CC1=O : false
2) CCN(CC)c1ccc(/C=C/C2=[N+](C)c3ccccc3C2(C)C)c(C)c1 : false
3) CC(=O)OC1Oc2ccccc2-c2oc(=O)c(-c3cc(=O)oc4cc(O)ccc34)cc21 (stereo unspecified) : false
4) CN(C)CCCN(Cc1ccccc1O)C(=S)Nc1ccc(Cl)cc1 : false
5) CCCCOCCOCCOCc1cc2c(cc1Br)OCO2 : false
6) COc1ccc2c(=O)cc(C(Cl)(Cl)Cl)oc2c1 : true
7) O=C(CCCC(=O)N/N=C/c1cc(Cl)ccc1O)N/N=C\c1cc(Cl)ccc1O : false
8) CC(C)c1[nH]nc2c(NCc3ccc(-c4ccccn4)cc3)nc(SCCN(C)C)nc12 : false
9) COc1ccc(-c2nc3sc(-c4ccccc4)c(-c4ccccc4)n3c2/C=C/c2ccc(F)cc2)cc1 : false
10) N/C(=N\O)c1cn(C2OC(CO)C(O)C2O)c2ncnc(N)c12 (stereo unspecified) : false
11) COc1cc(N=C2C(=O)N(Cc3ccccc3)c3ccccc32)cc(OC)c1OC : false
